System: CCRF-CEM
PROTOCOL: In vitro inhibitory activity against HIV infected T4 lymphocytes (CEM cell line)
Format: functional, cell-based
EXPERIMENTAL PARAMETERS: Homo sapiens
OBSERVATION TYPE: pEC50
Please report pEC50 as the negative decimal logarithm of the molar concentration, giving only the number.

[ask] What does the data say about its pEC50? Entry: COc1nc(N)c(NC2O[C@H](CO)[C@@H](O)[C@H]2O)c(=O)n1C (stereo partly specified)
[reply] 4.19

###

Known selectivity ratio of a selection of compounds
PROTOCOL: Therapeutic index (IC50/EC50) was determined

COc1nc(N)c(NC2O[C@H](CO)[C@@H](O)[C@H]2O)c(=O)n1C (some centres not stated): > 13

Here's the next entry for you.
[ask] What does the data say about its selectivity ratio? Entry: COc1nc(N)c(NC2O[C@H](CO)[C@H](O)[C@H]2O)c(=O)n1C (some centres not stated)
[reply] > 1.6
